test: soluble fraction after stress (log2 fold change); higher = more stays soluble; pooled small domains, quantitative proteomics; conditions: stress: 50 degC
Measured soluble fraction (log2) by item
// no unit string in output, number only

Here's what some known entries look like.
[[record]]
sequence_input = "HMQNLISSDEAKNIALQHANLTDNQVTFIKVSKDYDDGIHIYEVEFHYNNREYNYDINAINGTILSYEQ"
reported_measurement = -0.574

[[record]]
sequence_input = "HMANKTVPNVSGKTVAEARAIIENQSLQVGEEKEEYSDSVAEGYIIRTNPTAGSQKKEQSKIDLVVSKG"
reported_measurement = 0.203

[[record]]
sequence_input = "HMTQEMPAEVKKKADAFNNAMDEENYTEAKAILAELEQNTAPSYPLLLQMQTRYAFETASWE"
reported_measurement = -0.00382

[[record]]
sequence_input = "HMFTKSNLEKLSNSELILKAIDSGNYSKIEFGGSEALNPDVPSYKKDLKNREELIEILSEMGM"
reported_measurement = -0.0323

[[record]]
sequence_input = "HMNQRTATVTASQLNVRSGPSTAYSIVHVLRQGETVEVIGESDGWYQIRLKDGRVGWSSGQYLNLN"
reported_measurement = 0.0784

[[record]]
sequence_input = "HMVLENLKKFIDSKGISVSAFEKSIGMSNNSFRKSLNSGGHIGSDKLENILKIYPELNPVWLLQGEGEML"
reported_measurement = -0.27

[[record]]
sequence_input = "HMTFEPVYDENSRILILGTFPSVKSREQQFYYGHPQNRFWKLLAALTGWKVPKTISEKKELLLQNGIA"
reported_measurement = -0.136

[[record]]
sequence_input = "HMKSNNPLDHVRVKQRGASWAYYFEKAKVDGKRRRGEGGGYATEQDARMAGVEAYNAYIGGGAK"
reported_measurement = -0.0068

[[record]]
sequence_input = "HMYSLSELERIKNFLTGYMSDYSIMMLDANEITNQVDISLKDYSDDNIESIKAAVLSHGGKTDYLNFIDDS"
reported_measurement = -0.589

[[record]]
sequence_input = "HMSTKEFTIHAGEWSYRVSQKLENLGLVSDAKKFDQYLEDNGYSSKIKIGHYTISKDADFEEIAKEIT"
reported_measurement = 0.0383


Which soluble fraction (log2) reading was recorded for the sequence `HMKRTRLEEAMDWLREQLNDGPVAYATLKDEAPKAEITLSTLRAAGEALRVDKQKKGVQWGGWTWSLPR` ?
0.0438

Now consider `HMKQTFGAMLAALRKEKGMTQLELAEQMGVTDKAVSKWERDLSFPDVTSLPRLAEILEVSVDELMQ` .
-0.0444

Now consider `HMGESYQIKDGELLVDIAQRVKPAGMTLRQTINALVAANPRAFRNGNPDLMYRGATLTIPDGDTLRRLAH` .
0.131

Now consider `HMHKLTIEEALNYKTPANAGGPYSGKPFRDIYDQRGKAAVISFAKYYLSKATPEDPMVEVYRTLLDGAMEL` .
-0.875

Now consider `HMDLMKKTLTKEMLLIDFMKQQFPDSSTNKLRKMLSSGRVKINNLITHKAKSQLKLGDIFELANKPHD` .
-0.826

Now consider `HMKEIATKSELTYFIQRLLDLLEETNFFNPEERKKAMINHIEAIFRRNNLTLQELNMLHGIITSITR` .
-2.62

Now consider `HMSLNNAHNTIFPRIIELMEMKQLENVLLIGGGIIPRKDIESLESSGVTKLYGPGTPVKETIEFITNWVK` .
-0.268

Now consider `HMEAGTEYVERAADYIRSHFQEDLTVSKLALYVGLNRSYLTTVFQNTLHVSPQQFLMRFRMERAAQLLD` .
0.0719

Now consider `HMNEIDDYDIQLLEYLSKGVSQEAMESVFKQAGITPNSKSTIEKRISKLKIYFKALNTTHLVSITKDLGL` .
-0.642

Now consider `HMTELKKTAVDTWVKDLGTEQALAKLDTLAVVKLRRLAREYKAFGIAGRAISKADKGMLLAEFRAYYEN` .
-1.86

Now consider `HMEIDMQEGIKTIILMMKEHNITPSEAMKIYKSANGDIHYISKIYNHFKNKGADNFVALMIKMVKPGEFIE` .
-0.00191

Now consider `HMTDRKRDAIVQAAIGEFREHGFNGTSMDRVAAAADVSKRTVYNHFPSKEELFEAILLLMWE` .
-2.09

Now consider `HMDDHLRLSDNERISAMSALATHFTEGRLDTSEFDERTLAASQAKSRGDLRPLFDDLPGQLPAALSP` .
0.0376

Now consider `HMPPNPELGKKLLKLRKEFKMTQDDVANILGMSRTSFSKYENGIANPPLQVMRKLASIYNVGLEYLI` .
-1.04
